Data origin: paper PMC6001238

System: L1210, CEM and HeLa cell lines
Assay: Cytostatic activity, average or summary over L1210, CEM and HeLa
Assay type: cell-based
Settings: average of L1210, CEM and HeLa; read-out: Toxicity (IC50) Average
Here, each record is paired with measured IC50 data.
Your answer is read as µM, so omit the unit and give the number.

CCCCCCc1ccc(NC(=O)CNC(=O)[C@H]2NC(=O)[C@H]3NC(=O)[C@H](NC(=O)[C@@H]4NC(=O)[C@H](CC(N)=O)NC(=O)[C@H](NC(=O)[C@@H](CC(C)C)NC)[C@H](O)c5ccc(c(Cl)c5)Oc5cc4cc(c5O[C@@H]4O[C@H](CO)[C@@H](O)[C@H](O)[C@H]4O[C@H]4C[C@](C)(N)[C@H](O)[C@H](C)O4)Oc4ccc(cc4Cl)[C@H]3O)c3ccc(O)c(c3)-c3c(O)cc(O)cc32)cc1 | 38

Task: Quote L1210, CEM and HeLa cell lines IC50 for entry CNC(CC(C)C)C(=O)NC1C(=O)NC(CC(N)=O)C(=O)NC2C(=O)NC3C(=O)NC(C(=O)NC(C(=O)NCCNC(=O)C=Cc4ccc(NS(=O)(=O)c5ccc(Cl)cc5)cc4)c4cc(O)cc(O)c4-c4cc3ccc4O)C(O)c3ccc(c(Cl)c3)Oc3cc2cc(c3OC2OC(CO)C(O)C(O)C2OC2CC(C)(N)C(O)C(C)O2)Oc2ccc(cc2Cl)C1O (stereo not drawn) .
Result: 195

Task: Quote L1210, CEM and HeLa cell lines IC50 for entry CNC(CC(C)C)C(=O)NC1C(=O)NC(CC(N)=O)C(=O)NC2C(=O)NC3C(=O)NC(C(=O)NC(C(=O)NCC(=O)Nc4ccc(-c5ccc(OC)cc5)cc4)c4cc(O)cc(O)c4-c4cc3ccc4O)C(O)c3ccc(c(Cl)c3)Oc3cc2cc(c3OC2OC(CO)C(O)C(O)C2OC2CC(C)(N)C(O)C(C)O2)Oc2ccc(cc2Cl)C1O (stereo not drawn) .
Result: 17

Task: Quote L1210, CEM and HeLa cell lines IC50 for entry CNC(CC(C)C)C(=O)NC1C(=O)NC(CC(N)=O)C(=O)NC2C(=O)NC3C(=O)NC(C(=O)NC(C(=O)NCC(=O)Nc4ccc(-c5cn(-c6ccc(C)cc6)nn5)cc4)c4cc(O)cc(O)c4-c4cc3ccc4O)C(O)c3ccc(c(Cl)c3)Oc3cc2cc(c3OC2OC(CO)C(O)C(O)C2OC2CC(C)(N)C(O)C(C)O2)Oc2ccc(cc2Cl)C1O (stereo not drawn) .
Result: 10
